Biological target: DAT (Homo sapiens)
Construct: expressed in transfected cells
Experiment: cell-based
Settings: mean (95% confidence interval), non-linear regression; read-out: IC50 (µM) DAT
Label key: YES means IC50 under 80 µM; NO means IC50 of 80 µM or more.

Worked cases, answers included:
Cc1ccc([C@H](O)[C@H](C)N)cc1 [Dihydro-(S,S)-4-MC]    YES
CN[C@H](C)[C@H](O)c1ccc(CO)cc1 [Dihydro-(R,R)-4-OH-MMC]    YES
C[C@@H](N)[C@@H](O)c1ccc(CO)cc1 [Dihydro-(S,R)-4-OH-MC]    NO

[ask] Strictly below 80 µM in IC50? Cc1ccc([C@@H](O)[C@H](C)N)cc1 [Dihydro-(R,S)-4-MC]
[reply] YES

[ask] Strictly below 80 µM in IC50? C[C@H](N)[C@H](O)c1ccc(CO)cc1 [Dihydro-(R,S)-4-OH-MC]
[reply] NO

[ask] Strictly below 80 µM in IC50? CN[C@@H](C)[C@H](O)c1ccc(CO)cc1 [Dihydro-(R,S)-4-OH-MMC]
[reply] NO

[ask] Strictly below 80 µM in IC50? C[C@@H](N)[C@H](O)c1ccc(CO)cc1 [Dihydro-(R,R)-4-OH-MC]
[reply] YES

[ask] Strictly below 80 µM in IC50? CN[C@H](C)[C@@H](O)c1ccc(CO)cc1 [Dihydro-(S,R)-4-OH-MMC]
[reply] YES

[ask] Strictly below 80 µM in IC50? Cc1ccc([C@H](O)[C@@H](C)N)cc1 [Dihydro-(S,R)-4-MC]
[reply] YES

----------
Target: SERT (Homo sapiens)
Construct: expressed in transfected cells
Sequence (P31645 whole entry): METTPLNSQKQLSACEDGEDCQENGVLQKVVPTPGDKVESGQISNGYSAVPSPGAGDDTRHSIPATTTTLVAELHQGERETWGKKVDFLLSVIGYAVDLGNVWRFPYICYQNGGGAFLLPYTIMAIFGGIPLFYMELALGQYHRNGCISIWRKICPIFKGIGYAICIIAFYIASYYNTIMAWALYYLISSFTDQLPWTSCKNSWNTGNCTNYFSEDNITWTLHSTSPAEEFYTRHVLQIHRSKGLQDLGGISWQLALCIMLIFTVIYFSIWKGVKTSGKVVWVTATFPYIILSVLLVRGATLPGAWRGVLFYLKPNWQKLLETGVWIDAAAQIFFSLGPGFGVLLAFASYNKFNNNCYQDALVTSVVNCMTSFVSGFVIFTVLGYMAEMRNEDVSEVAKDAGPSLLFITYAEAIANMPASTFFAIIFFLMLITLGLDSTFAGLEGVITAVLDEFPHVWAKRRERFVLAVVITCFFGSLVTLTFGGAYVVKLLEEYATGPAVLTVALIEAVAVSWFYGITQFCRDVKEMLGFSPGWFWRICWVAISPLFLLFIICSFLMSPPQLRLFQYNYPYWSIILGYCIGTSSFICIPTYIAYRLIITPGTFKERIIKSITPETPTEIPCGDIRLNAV
Assay: Uptake-inhibition of [3H]5-HT in HEK293 cells stably expressing human SERT
Assay type: cell-based
Conditions: QSAR data matrix, from IC50 SERT
Mark F for pIC50 SERT values under 4, and T for everything at or above.

Worked cases, answers included:
Cc1ccc(C(=O)[C@@H](C)N)cc1 [2R-MC, reference compound]    F
CN[C@@H](C)[C@@H](O)c1ccc(C)cc1 [1S2S-MMC, reference compound]    F
CN[C@H](C)[C@@H](O)c1ccc(C)cc1 [1S2R-MMC, reference compound]    T
CN[C@H](C)[C@H](O)c1ccc(C)cc1 [1R2R-MMC, reference compound]    F
CN[C@@H](C)[C@H](O)c1ccc(C)cc1 [1R2S-MMC, reference compound]    T

[ask] Would you say Cc1ccc(C(=O)[C@H](C)N)cc1 [2S-MC, reference compound] shows pIC50 SERT at minimum 4?
[reply] T

----------
# IC50 listing for each entry below
Molecular target: human NET (Homo sapiens, UniProt P23975)
Construct: expressed in transfected cells
Sequence (P23975 whole entry): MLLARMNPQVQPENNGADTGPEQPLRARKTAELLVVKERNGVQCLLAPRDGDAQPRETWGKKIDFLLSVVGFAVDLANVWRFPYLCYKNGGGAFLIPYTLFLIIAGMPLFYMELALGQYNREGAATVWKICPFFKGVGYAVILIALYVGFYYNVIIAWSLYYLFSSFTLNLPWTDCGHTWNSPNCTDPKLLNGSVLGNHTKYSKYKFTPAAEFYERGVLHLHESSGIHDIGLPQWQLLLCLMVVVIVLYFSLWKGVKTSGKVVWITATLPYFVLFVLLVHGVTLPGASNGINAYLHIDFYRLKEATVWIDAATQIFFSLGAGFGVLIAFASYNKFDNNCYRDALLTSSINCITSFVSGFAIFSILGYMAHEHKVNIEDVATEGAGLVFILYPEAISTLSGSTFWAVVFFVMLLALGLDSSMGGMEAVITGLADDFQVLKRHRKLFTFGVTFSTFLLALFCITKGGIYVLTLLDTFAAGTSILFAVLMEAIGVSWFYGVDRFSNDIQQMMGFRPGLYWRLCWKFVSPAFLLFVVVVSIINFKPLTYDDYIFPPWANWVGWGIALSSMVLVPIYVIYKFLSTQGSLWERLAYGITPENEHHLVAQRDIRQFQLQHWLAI
Test: cell-based
Settings: mean (95% confidence interval), non-linear regression; read-out: IC50 (µM) NET
The reply should contain only the number, in µM.

Cc1ccc([C@@H](O)[C@H](C)N)cc1 [Dihydro-(R,S)-4-MC]    32.4
C[C@H](N)[C@@H](O)c1ccc(CO)cc1 [Dihydro-(S,S)-4-OH-MC]    12.6
Cc1ccc([C@@H](O)[C@@H](C)N)cc1 [Dihydro-(R,R)-4-MC]    18.1
CN[C@@H](C)[C@@H](O)c1ccc(CO)cc1 [Dihydro-(S,S)-4-OH-MMC]    291

[ask] Give the reported value of IC50 for this record: Cc1ccc([C@H](O)[C@@H](C)N)cc1 [Dihydro-(S,R)-4-MC]
[reply] 41.8

----------
Target: DAT (Homo sapiens, UniProt Q01959)
Construct: expressed in transfected cells
Sequence (Q01959 whole entry): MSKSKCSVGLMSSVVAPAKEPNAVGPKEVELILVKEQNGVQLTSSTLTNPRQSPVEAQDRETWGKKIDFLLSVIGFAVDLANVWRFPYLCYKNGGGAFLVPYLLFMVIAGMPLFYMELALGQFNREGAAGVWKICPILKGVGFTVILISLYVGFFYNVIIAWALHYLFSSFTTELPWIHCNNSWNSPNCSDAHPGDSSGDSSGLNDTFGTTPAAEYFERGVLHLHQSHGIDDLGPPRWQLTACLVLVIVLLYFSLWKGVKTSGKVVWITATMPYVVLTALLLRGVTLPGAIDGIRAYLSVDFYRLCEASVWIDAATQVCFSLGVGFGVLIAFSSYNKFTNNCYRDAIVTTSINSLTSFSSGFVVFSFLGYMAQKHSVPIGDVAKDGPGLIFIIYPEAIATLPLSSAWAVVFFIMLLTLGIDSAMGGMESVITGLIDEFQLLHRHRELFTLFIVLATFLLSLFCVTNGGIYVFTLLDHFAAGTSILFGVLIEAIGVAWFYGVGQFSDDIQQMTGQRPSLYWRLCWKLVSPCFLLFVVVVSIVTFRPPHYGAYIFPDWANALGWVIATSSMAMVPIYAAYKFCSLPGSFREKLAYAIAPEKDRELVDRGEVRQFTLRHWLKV
Test: cell-based
Conditions: QSAR data matrix, from IC50 DAT
propertyName: pIC50 DAT
The response must contain the number and no unit.

Below, each entry is followed by its recorded pIC50 DAT result.
CN[C@H](C)[C@@H](O)c1ccc(C)cc1 [1S2R-MMC, reference compound]    4.90
Cc1ccc(C(=O)[C@H](C)N)cc1 [2S-MC, reference compound]    5.06
CN[C@@H](C)[C@H](O)c1ccc(C)cc1 [1R2S-MMC, reference compound]    4.68
CN[C@H](C)[C@H](O)c1ccc(C)cc1 [1R2R-MMC, reference compound]    4.85
CN[C@@H](C)[C@@H](O)c1ccc(C)cc1 [1S2S-MMC, reference compound]    4.89

Continue with the next molecule.
[ask] State pIC50 DAT (DAT (Homo sapiens, UniProt Q01959)) of Cc1ccc(C(=O)[C@@H](C)N)cc1 [2R-MC, reference compound] .
[reply] 5.03

----------
# Selectivity ratio NET/DAT listing for each entry below
Molecular target: human NET (Homo sapiens, UniProt P23975)
Construct: expressed in transfected cells
Assay: cell-based
The response must contain the number and no unit.

Below, each entry is followed by its recorded Selectivity ratio NET/DAT result.
C[C@H](N)[C@@H](O)c1ccc(CO)cc1 [Dihydro-(S,S)-4-OH-MC]    4.71
Cc1ccc([C@@H](O)[C@H](C)N)cc1 [Dihydro-(R,S)-4-MC]    0.42
C[C@@H](N)[C@H](O)c1ccc(CO)cc1 [Dihydro-(R,R)-4-OH-MC]    0.61
C[C@@H](N)[C@@H](O)c1ccc(CO)cc1 [Dihydro-(S,R)-4-OH-MC]    1.09
C[C@H](N)C(=O)c1ccc(CO)cc1 [S-4-OH-MC]    3.22

[ask] Give the reported value of Selectivity ratio NET/DAT for this record: Cc1ccc([C@@H](O)[C@@H](C)N)cc1 [Dihydro-(R,R)-4-MC]
[reply] 0.44

[ask] Give the reported value of Selectivity ratio NET/DAT for this record: CN[C@H](C)[C@@H](O)c1ccc(CO)cc1 [Dihydro-(S,R)-4-OH-MMC]
[reply] 1.55

[ask] Give the reported value of Selectivity ratio NET/DAT for this record: CN[C@@H](C)[C@H](O)c1ccc(CO)cc1 [Dihydro-(R,S)-4-OH-MMC]
[reply] 1.57

[ask] Give the reported value of Selectivity ratio NET/DAT for this record: C[C@H](N)[C@H](O)c1ccc(CO)cc1 [Dihydro-(R,S)-4-OH-MC]
[reply] 1.60

----------
Test: LC-MS/MS detection of mephedrone metabolites in a human urine sample
Type: in vivo
Design: key: detected (+); not detected (−)
Settings: human urine, mephedrone user; only syn- and anti-configurations could be separated
propertyName: Detected in urine samples

Below, each entry is followed by its recorded Detected in urine samples result.
CN[C@H](C)[C@H](O)c1ccc(CO)cc1 [Dihydro-(R,R)-4-OH-MMC]    −
C[C@H](N)[C@@H](O)c1ccc(CO)cc1 [Dihydro-(S,S)-4-OH-MC]    −
C[C@@H](N)[C@@H](O)c1ccc(CO)cc1 [Dihydro-(S,R)-4-OH-MC]    −
C[C@H](N)C(=O)c1ccc(CO)cc1    −
Cc1ccc([C@H](O)[C@H](C)N)cc1 [Dihydro-(S,S)-4-MC]    +
Cc1ccc([C@H](O)[C@@H](C)N)cc1 [Dihydro-(S,R)-4-MC]    +
Cc1ccc([C@@H](O)[C@@H](C)N)cc1 [Dihydro-(R,R)-4-MC]    +
CN[C@@H](C)[C@@H](O)c1ccc(CO)cc1 [Dihydro-(S,S)-4-OH-MMC]    −
C[C@@H](N)[C@H](O)c1ccc(CO)cc1 [Dihydro-(R,R)-4-OH-MC]    −
C[C@H](N)[C@H](O)c1ccc(CO)cc1 [Dihydro-(R,S)-4-OH-MC]    −

[ask] Give the reported value of Detected in urine samples for this record: CNC(C)C(=O)c1ccc(C)cc1 (centres unmarked) [Mephedrone, reference compound]
[reply] +

[ask] Give the reported value of Detected in urine samples for this record: CN[C@@H](C)[C@H](O)c1ccc(CO)cc1 [Dihydro-(R,S)-4-OH-MMC]
[reply] −

[ask] Give the reported value of Detected in urine samples for this record: Cc1ccc([C@@H](O)[C@H](C)N)cc1 [Dihydro-(R,S)-4-MC]
[reply] +

[ask] Give the reported value of Detected in urine samples for this record: CN[C@H](C)[C@@H](O)c1ccc(CO)cc1 [Dihydro-(S,R)-4-OH-MMC]
[reply] −

----------
Molecular target: DAT (Homo sapiens)
Construct: expressed in transfected cells
Assay: cell-based
propertyName: Selectivity ratio DAT/SERT
The response must contain the number and no unit.

C[C@@H](N)[C@H](O)c1ccc(CO)cc1 [Dihydro-(R,R)-4-OH-MC]    48.42
CN[C@@H](C)[C@H](O)c1ccc(CO)cc1 [Dihydro-(R,S)-4-OH-MMC]    5.87
Cc1ccc([C@@H](O)[C@@H](C)N)cc1 [Dihydro-(R,R)-4-MC]    9.26

Continue with the next compound.
[ask] Give the reported value of Selectivity ratio DAT/SERT for this record: C[C@@H](N)[C@@H](O)c1ccc(CO)cc1 [Dihydro-(S,R)-4-OH-MC]
[reply] 12.68

----------
# IC50 listing for each entry below
Target: human NET (Homo sapiens)
Construct: expressed in transfected cells
Assay: cell-based
The reply should contain only the number, in nM.

CN[C@H](C)C(=O)c1ccc(C)cc1 [2R-MMC, R-mephedrone, reference compound]    2750

Continue with the next molecule.
[ask] State IC50 (human NET (Homo sapiens)) of CN[C@@H](C)C(=O)c1ccc(C)cc1 [S-mephedrone, reference compound] .
[reply] 2750
